Data credit: ChEMBL document CHEMBL1697781

- Tested on: Hepatotoxicity
- Assay overview: FDA HLAED, lactate dehydrogenase (LDH) increase
- Experimental parameters: human
Test readout: LDH Increase - Number of Reports

Guide cases for LDH Increase - Number of Reports, answers given:
In [3]: df
Out[3]:
                                   molecule   target_system  observed_result
0  O=c1[nH]c2ccccc2n1C1CCN(CCCC(c2ccc(F)cc2)c2ccc(F)cc2)CC1 [PIMOZIDE]  Hepatotoxicity              < 4
1  O=C1CC[C@@]2(O)[C@H]3Cc4ccc(O)c5c4[C@@]2(CCN3CC2CC2)[C@H]1O5 [NALTREXONE]  Hepatotoxicity              < 4
2              Nc1nc(O)c2ncn(COC(CO)CO)c2n1  Hepatotoxicity             >= 4
3   CNC(=C[N+](=O)[O-])NCCSCc1ccc(CN(C)C)o1  Hepatotoxicity             >= 4
4  CC(NC(C)(C)C)C(=O)c1cccc(Cl)c1 (stereo not drawn)  Hepatotoxicity              < 4

Which value of LDH Increase - Number of Reports has been reported for COc1ccc(CCN(C)CCCC(C#N)(c2ccc(OC)c(OC)c2)C(C)C)cc1OC (stereo not drawn) in the records? < 4

Which LDH Increase - Number of Reports is reported for this molecule? `CN[C@H]1CC[C@@H](c2ccc(Cl)c(Cl)c2)c2ccccc21` >= 4

Which LDH Increase - Number of Reports value is on record for `Clc1ccc2c(c1)C(c1ccccc1)=NCc1nncn1-2` ? < 4

Given the entry `C[C@@]12CCCCC[C@@H](Cc3ccc(O)cc31)[C@@H]2N` , report its measured LDH Increase - Number of Reports. < 4

For the molecule shown here, N#Cc1cc(NC(=O)C(=O)O)c(Cl)c(NC(=O)C(=O)O)c1 [LODOXAMIDE] , give the reported LDH Increase - Number of Reports. < 4

Please report the recorded LDH Increase - Number of Reports for `C[C@H]1COc2c(N3CCN(C)CC3)c(F)cc3c(=O)c(C(=O)O)cn1c23.C[C@H]1COc2c(N3CCN(C)CC3)c(F)cc3c(=O)c(C(=O)O)cn1c23.O` . < 4

Tell me the measured LDH Increase - Number of Reports of CCOC(=O)c1cncn1[C@H](C)c1ccccc1 [ETOMIDATE] , please. < 4

Any idea what its LDH Increase - Number of Reports is? The molecule is CN1CC[C@]23c4c5ccc(O)c4O[C@H]2C(=O)CC[C@H]3[C@H]1C5 [HYDROMORPHONE] < 4

Find the recorded LDH Increase - Number of Reports belonging to `C[C@H](O)C(=O)Nc1c(I)c(C(=O)NC(CO)CO)c(I)c(C(=O)NC(CO)CO)c1I` and report it. < 4

Bench note: what LDH Increase - Number of Reports did `CC(=O)OCC(CCn1cnc2cnc(N)nc21)COC(C)=O` show? < 4

For COc1ccc2[nH]c([S+]([O-])Cc3ncc(C)c(OC)c3C)nc2c1 (stereo not drawn) , what is its reported LDH Increase - Number of Reports? >= 4

Requested read-out: LDH Increase - Number of Reports. Entry: Clc1ccc(COC(Cn2ccnc2)c2ccc(Cl)cc2Cl)cc1 (stereo not drawn) < 4

Look up LDH Increase - Number of Reports: `CC(C)c1ccc2oc3nc(N)c(C(=O)O)cc3c(=O)c2c1` < 4

====

- System: Hepatotoxicity
- Assay overview: FDA HLAED, serum glutamic pyruvic transaminase (SGPT) increase
- Experimental parameters: human
Test readout: SGPT Increase - Index Value
Just the number.

Endpoint output: SGPT Increase - Index Value of COCC(=O)Nc1c(I)c(C(=O)NCC(O)CO)c(I)c(C(=O)N(C)CC(O)CO)c1I (centres undefined) [IOPROMIDE] . Value? 0

Tell me the measured SGPT Increase - Index Value of O=C(O)c1cn(C2CC2)c2cc(N3CCNCC3)c(F)cc2c1=O [CIPROFLOXACIN] , please. 2.1

Given the compound CCOC(=O)/C=C(C)/C=C/C=C(C)/C=C/c1c(C)cc(OC)c(C)c1C [ETRETINATE] , what is its reported SGPT Increase - Index Value? 3.2

I would be grateful if you could share the reported SGPT Increase - Index Value for CC1=C(C(=O)O)N2C(=O)[C@@H](NC(=O)[C@H](N)c3ccc(O)cc3)[C@H]2SC1 [CEFADROXIL] . 0

Field request: SGPT Increase - Index Value | item: CCCN1CCCC[C@H]1C(=O)Nc1c(C)cccc1C [ROPIVACAINE] 0

Look up SGPT Increase - Index Value: Nc1nnc(-c2cccc(Cl)c2Cl)c(N)n1 [LAMOTRIGINE] 4

Please report the recorded SGPT Increase - Index Value for C[C@H]1COc2c(N3CCN(C)CC3)c(F)cc3c(=O)c(C(=O)O)cn1c23.C[C@H]1COc2c(N3CCN(C)CC3)c(F)cc3c(=O)c(C(=O)O)cn1c23.O [LEVOFLOXACIN] . 0

Any idea what its SGPT Increase - Index Value is? The compound is Clc1ccc(C(Cn2ccnc2)OCc2ccsc2Cl)c(Cl)c1 (centres undefined) [TIOCONAZOLE] 0

Tell me the measured SGPT Increase - Index Value of O=P1(NCCCl)OCCCN1CCCl (centres undefined) [IFOSFAMIDE] , please. 7.5

====

- System: Hepatotoxicity
- Assay overview: FDA HLAED, liver enzyme composite activity
- Experimental parameters: human
Test readout: Composite Activity - Active
Output spec: single numeric token, no unit.

Provide value of Composite Activity - Active for this record tested with Hepatotoxicity: `CC(=O)CCCCn1c(=O)c2c(ncn2C)n(C)c1=O` 0

Any idea what Composite Activity - Active came out for `N=C(N)c1ccc(OCCCCCOc2ccc(C(=N)N)cc2)cc1` on Hepatotoxicity? 0

Hepatotoxicity / Composite Activity - Active / `CN(C)CCC=C1c2ccccc2CCc2ccccc21` : value? 0

Look up Composite Activity - Active with Hepatotoxicity for this compound: `CC(C)(C)NC[C@H](O)COc1nsnc1N1CCOCC1` 0

Request body: readout Composite Activity - Active, system Hepatotoxicity, query CN(C)CCC=C1c2ccccc2COc2ccccc21 [DOXEPIN] . Return the value. 2

Reported Composite Activity - Active for Hepatotoxicity, given `Oc1ccc2c(c1)[C@@]13CCCC[C@@]1(O)[C@@H](C2)N(CC1CCC1)CC3` ? 0

For the record `COC(=O)Nc1nc2ccc(C(=O)c3ccccc3)cc2[nH]1` , what value of Composite Activity - Active is listed for Hepatotoxicity? 0

Checklist item: Composite Activity - Active tested on Hepatotoxicity, entry CC(C)(C)c1ccc(C(O)CCCN2CCC(C(O)(c3ccccc3)c3ccccc3)CC2)cc1 (centres undefined) , value? 0

Kindly state the measured Composite Activity - Active obtained for `O=C(O)c1cc(/N=N/c2ccc(S(=O)(=O)Nc3ccccn3)cc2)ccc1O` with Hepatotoxicity. 1

====

- System: Hepatotoxicity
- Assay overview: FDA HLAED, liver enzyme composite activity
- Experimental parameters: human

Compound	Composite Activity - Score
COCCOC(=O)C1=C(C)NC(C)=C(C(=O)OC(C)C)C1c1cccc([N+](=O)[O-])c1 (stereo not drawn)	Active
CCOC(=O)CCC(=O)O[C@H]1[C@H](O[C@@H]2[C@@H](C)[C@H](O[C@H]3C[C@@](C)(OC)[C@@H](O)[C@H](C)O3)[C@@H](C)C(=O)O[C@H](CC)[C@@](C)(O)[C@H](O)[C@@H](C)C(=O)[C@H](C)C[C@@]2(C)O)O[C@H](C)C[C@@H]1N(C)C [ERYTHROMYCIN ETHYLSUCCINATE]	Active

====

- Test system: Hepatotoxicity
- Assay overview: FDA HLAED, serum glutamic oxaloacetic transaminase (SGOT) increase
- Experimental parameters: human
Test readout: SGOT Increase - Number of Reports

>>> df
                                   compound                       test_readout  observed_result
0  C=C1/C(=C\C=C2/CCC[C@]3(C)[C@@H]([C@H](C)CCCC(C)(C)O)CC[C@@H]23)C[C@@H](O)C[C@@H]1O  SGOT Increase - Number of Reports              < 4
1  OC[C@H]1O[C@@H](n2cnc3c2NC=NC[C@H]3O)C[C@@H]1O  SGOT Increase - Number of Reports              < 4
2  CCOC(=O)C1=C(COCCN)NC(C)=C(C(=O)OC)C1c1ccccc1Cl (centres undefined)  SGOT Increase - Number of Reports             >= 4
3  CCCCC(=O)O[C@H]1CC[C@H]2[C@@H]3CCc4cc(O)ccc4[C@H]3CC[C@]12C [ESTRADIOL VALERATE]  SGOT Increase - Number of Reports             >= 4
